assay: Cmax in Sprague-Dawley rat at 10 mg/kg, iv; assay type: ADME, organism-based; set-up: dose 10 mg/kg, route intravenous; conditions: in vivo
Parameter: Cmax (ng/mL)

>>> print(df.to_string())
                                   molecule  parameter  reported_result
0  CNc1ncc(C#Cc2cc(C(=O)Nc3cc(-n4cnc(C)c4)cc(C(F)(F)F)c3)ccc2C)cn1       Cmax            11000

###

assay: Half life in Sprague-Dawley rat at 25 mg/kg, po; type: ADME, organism-based; conditions: in vivo
Parameter: half-life (h)

                                   molecule  readout_unit  reported_result
0  CNc1ncc(C#Cc2cc(C(=O)Nc3cc(-n4cnc(C)c4)cc(C(F)(F)F)c3)ccc2C)cn1             h              7.8

###

assay: Cmax in Sprague-Dawley rat at 25 mg/kg, po; assay type: ADME, organism-based; parameters: dose 25 mg/kg, route oral; settings: in vivo
Parameter: Cmax (µg/mL)

In [3]: df
Out[3]:
                                   molecule  readout_unit  reported_result
0  CNc1ncc(C#Cc2cc(C(=O)Nc3cc(-n4cnc(C)c4)cc(C(F)(F)F)c3)ccc2C)cn1         µg/mL             3.09

###

# pIC50 per entry
molecular target: Bcr/Abl fusion protein (Homo sapiens, UniProt P00519, T315I)
pIC50: −log10 of the molar value.
Parameter: pIC50

>>> print(df.to_string())
                                   molecule                                 tested_on  parameter  reported_result
0  Cc1cn(-c2cc(NC(=O)c3ccc(C)c(C#Cc4cnc(N5CCCC5)nc4)c3)cc(C(F)(F)F)c2)cn1  Bcr/Abl fusion protein (Homo sapiens, UniProt P00519, T315I)      pIC50           < 6.00
1  Cc1cn(-c2cc(NC(=O)c3ccc(C)c(C#Cc4cnc(N5CCOCC5)nc4)c3)cc(C(F)(F)F)c2)cn1  Bcr/Abl fusion protein (Homo sapiens, UniProt P00519, T315I)      pIC50           < 6.00
2  Cc1cn(-c2cc(NC(=O)c3ccc(C)c(C#Cc4cnc(N5CCCCC5)nc4)c3)cc(C(F)(F)F)c2)cn1  Bcr/Abl fusion protein (Homo sapiens, UniProt P00519, T315I)      pIC50           < 6.00

###

# IC50 per entry
biological target: Bcr/Abl fusion protein (Homo sapiens, UniProt P00519); assay type: protein assay
Description: Inhibition of wild type Bcr-Abl (unknown origin) using Tyr2 peptide substrate after 2 hrs by FRET-based Z'-lyte assay
Parameter: IC50 (nM)

In [3]: df
Out[3]:
                                   molecule                                 tested_on  parameter  censoring_qualifier  reported_result
0  CCNc1ncc(C#Cc2cc(C(=O)Nc3cc(-n4cnc(C)c4)cc(C(F)(F)F)c3)ccc2C)cn1  Bcr/Abl fusion protein (Homo sapiens, UniProt P00519)       IC50                    =               30
1  Cc1cn(-c2cc(NC(=O)c3ccc(C)c(C#Cc4cnc(NCCO)nc4)c3)cc(C(F)(F)F)c2)cn1  Bcr/Abl fusion protein (Homo sapiens, UniProt P00519)       IC50                    =               18
2  Cc1cn(-c2cc(NC(=O)c3ccc(C)c(C#Cc4cnc(NC5CC5)nc4)c3)cc(C(F)(F)F)c2)cn1  Bcr/Abl fusion protein (Homo sapiens, UniProt P00519)       IC50                    =                5
3  Cc1cn(-c2cc(NC(=O)c3ccc(C)c(C#Cc4cnc(NC5CCCCC5)nc4)c3)cc(C(F)(F)F)c2)cn1  Bcr/Abl fusion protein (Homo sapiens, UniProt P00519)       IC50                    =               93
4  Cc1cn(-c2cc(NC(=O)c3ccc(C)c(C#Cc4cnc(N5CCCC5)nc4)c3)cc(C(F)(F)F)c2)cn1  Bcr/Abl fusion protein (Homo sapiens, UniProt P00519)       IC50                    >             1000

These data points were gathered from ChEMBL document CHEMBL3603836.
